experiment: protein stability index of a GFP-peptide fusion (GPS, HEK-293T) (PSI 1-6); higher = more stable; details: treatment: MLN4924 1 uM, 8 h; c terminus: a fixed tail appended;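 further: 24-mer peptide tiles fused after GFP, lentivirally expressed, FACS-sorted into six equal bins by GFP/DsRed ratio, decoded by Illumina sequencing, PSI is the read-weighted mean bin number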
Metric name: protein stability index

Past entries and their recorded results:
DPDFKDLGALKPLPACEFEMGGSE [NETO1]	5.27
RGYWGDIATGPFVAFGIEADDESL [DNAAF3]	3.65
LQSAAGKDAAKQIAWIKDKLLHIY [PDS5B]	3.09
RVIMIVTDGRPQDSVAEVAAKARD [MATN2]	2.76
KVYDDMAFRYLSWILFPLLGCYAV [CLPTM1]	3.07

query: Please give the measured protein stability index for this sequence: YKVSAASSFFFSGVFVGVISFGQL [SLC22A15]
result: 3.25

query: Repeat for the following sequence: EIARREKELEARVRKPAEAERYKL [FLOT1]
result: 4.45

query: Repeat for the following sequence: KKTGKSSTTALGDKQRKANESKGT [ELOA2]
result: 5.22

query: Repeat for the following sequence: GSRAGASSFSDPFFVVETLCIIWF [KCNA3]
result: 2.53

query: Repeat for the following sequence: ESHSCPQQVPMPPGQEAQRVVCGI [NEK8]
result: 4.15

query: Repeat for the following sequence: TKDPDVAFHGLSLGLSLTNGLALG [PSD2]
result: 2.43

query: Repeat for the following sequence: AVLGFPGFSSGRHRWQVDLQLGDG [TRIM15]
result: 2.22

query: Repeat for the following sequence: RSKIYLRFLDYEMQNSNECKRNFV [NETO1]
result: 2.28

====

Measured protein stability index, listed per entry for reference.
experiment: protein stability index of a GFP-peptide fusion (GPS, HEK-293T) (PSI 1-6); higher = more stable; settings: treatment: MLN4924 1 uM, 8 h; c terminus: native
Would you mind answering with just the numeric figure?

Past entries and their recorded results:
NLPSGGKGFKLRRQPSEPKRSCC [RAB22A]	4
MLEDGPHNANRGQRLLAFSRGRA [CCDC70]	2.77
FARYPNGVVVHYFCSKEVNPADT [VPS39]	2.27
DQTKSIVEKIQAKLPGIAKKKAE [RTN3]	5.56
TQGLPWRFEELLTCSHWPSFFPS [TEX19]	2.24
IPAVSISYVVYENLKITLGVQSR [SLC25A25]	3.18

API: the following record is the query input.
query: Please give the measured protein stability index for this sequence: GEVEEEADSCFGDDEDDSGTEES [CDC34]
result: 5.29

====

Measured protein stability index, listed per entry for reference.
experiment: protein stability index of a GFP-peptide fusion (GPS, HEK-293T) (PSI 1-6); higher = more stable; conditions: treatment: DMSO; c terminus: a fixed tail appended
Would you mind answering with just the numeric figure?

SPEWDTVTPEAKDLINKMLTINPA [CAMK2D]	4.24
GSIGVWHYICPRLGGIGFSSCIVC [SLC6A17]	2.58
FTDFNATSALFWEQHDLVYGDWTS [CLPTM1]	2.29
ACRRRDALTGHLRTHSVIKEETNH [IKZF1]	4.01
VVCRQLGLGFASNAFQETWYWHGD [LOXL2]	2.55

query: Please give the measured protein stability index for this sequence: YVLNLLYETKKHLVQLPNINRVST [PPEF2]
result: 2.49

query: Repeat for the following sequence: STAHASAQSLAGGSRRTKEEELQC [TPD52L1]
result: 5.16

query: Repeat for the following sequence: SPDSSMLCSVGASKAVFLWNMDKY [WSB1]
result: 2.35

query: Repeat for the following sequence: ELEPLKGNFDWEAIFDAGTLGGEL [FOXJ1]
result: 4.2

query: Repeat for the following sequence: ARVNENLARKIASRNEFDRTIAET [SSNA1]
result: 3.95

====

Measured protein stability index, listed per entry for reference.
assay: protein stability index of a GFP-peptide fusion (GPS, HEK-293T) (PSI 1-6); higher = more stable; details: treatment: MLN4924 1 uM, 8 h; c terminus: a fixed tail appended
Would you mind answering with just the numeric figure?

SRCRKLVEYFQQSAVAMYMLYEKQ [ZBED1]	2.13
LDKLRNEWASHTAALTNKHSQELT [SASS6]	3.83
RPVAPRRPRDAVGQRGAQGAGRRR [SMAD6]	5.43
GIGHKVDAVFMKDGFFYFFHGTRQ [MMP1]	2.13

query: Please give the measured protein stability index for this sequence: RFALIPAPELVERVQSVDFMRTDP [KLHL14]
result: 3.26

query: Repeat for the following sequence: LPDNFTLKEDGMETVPWFPKKISD [TPH1]
result: 4.3

query: Repeat for the following sequence: DLPKAKTRAADLLVNPLDPRNADK [SRPK2]
result: 5

query: Repeat for the following sequence: ALFAQVQRGALPAPDPELAAEMYQ [RSAD1]
result: 3.78

query: Repeat for the following sequence: RRHPQGAWKELDRNYLNYGEEGAP [CHGB]
result: 4.1

query: Repeat for the following sequence: MGYMLFNERMLESYLHAKKYLKPS [CARM1]
result: 2.08

query: Repeat for the following sequence: RRHCQACRLKRCVDIGMMKEFILT [VDR]
result: 2.15

query: Repeat for the following sequence: NEFLEAFRLVEKSCPEGDASECPQ [PPEF2]
result: 5.17

query: Repeat for the following sequence: LTPSSKEMMSQALKATFSGFTKEQ [ETS1]
result: 3.74

====

assay: protein stability index of a GFP-peptide fusion (GPS, HEK-293T) (PSI 1-6); higher = more stable; settings: treatment: MLN4924 1 uM, 8 h; c terminus: a fixed tail appended
Measured protein stability index, listed per entry for reference.
Would you mind answering with just the numeric figure?

query: Please give the measured protein stability index for this sequence: SLGALDLLGPATGCLLDDGLEGLF [SERTAD1]
result: 2.57

====

assay: protein stability index of a GFP-peptide fusion (GPS, HEK-293T) (PSI 1-6); higher = more stable; details: treatment: MLN4924 1 uM, 8 h; c terminus: a fixed tail appended
Measured protein stability index, listed per entry for reference.
Would you mind answering with just the numeric figure?

TIRLNISDVNDNAPRFNQQLYTAY [PCDHGC5]	2.37
AHSSSNTIRSGISPNLNVVDGRLT [SASS6]	4.31
SKPSIQPKPLLLPAAPKTQTISSI [ATF6]	3.82

query: Please give the measured protein stability index for this sequence: FLDILRRADKNDDGKLSFEEFKAY [NECAB1]
result: 2.93

====

Measured protein stability index, listed per entry for reference.
assay: protein stability index of a GFP-peptide fusion (GPS, HEK-293T) (PSI 1-6); higher = more stable; settings: treatment: DMSO; c terminus: a fixed tail appended
Would you mind answering with just the numeric figure?

MATPDAGLPGAEGVEPAPWAQLEA [FANCE]	4.86
KHSSTSSRIAKGGVDHTKMSLHGA [BTBD10]	3.66
QKKIESYLHNHFIGEGMTKYDYLM [TENT5D]	2.13

query: Please give the measured protein stability index for this sequence: SIEYDSEPFGKERDAAIKKLATEA [CRY1]
result: 5.18

query: Repeat for the following sequence: GKVLGKGGFAKCYEMTDLTNNKVY [PLK2]
result: 2.73

====

assay: protein stability index of a GFP-peptide fusion (GPS, HEK-293T) (PSI 1-6); higher = more stable; conditions: treatment: MLN4924 1 uM, 8 h; c terminus: a fixed tail appended
Measured protein stability index, listed per entry for reference.

Past entries and their recorded results:
SPKELKRRNSSSSMSSRLSIYDNV [DLC1]	3.94
KDVRRHLVVHTGCKDFLCQFCAQR [PLAGL1]	3.55
LRRFVVRTMCAVLGLVARQEDSGL [AUP1]	1.91
EECTDLQKEGEFSTCFTELQRDFL [OAS1]	4.52
KSVQCGTWTKHAEGGIFTSPNYPS [NETO1]	2.89

query: Please give the measured protein stability index for this sequence: ETLSITNCRLSEGDVMHLSQSPSV [PRAME]
result: 3.22

query: Repeat for the following sequence: PEARYLFLLDVIPVDGARYRWQGR [TBX6]
result: 2.09

query: Repeat for the following sequence: DEAELDYLMDVLVGTQALERPPGP [SERTAD1]
result: 3.87

query: Repeat for the following sequence: QALQKEKETLAVNYEKEEEFLTNE [CCDC6]
result: 5.3

query: Repeat for the following sequence: SQSSASQPRLSYAEMAEDYPRYPD [CLCN6]
result: 4.86

query: Repeat for the following sequence: TKEEGLALAREFSCPFFETSAAYR [RIT1]
result: 3.13

query: Repeat for the following sequence: SEADSEAGELRKPTQEEWRQVVDI [PPEF2]
result: 5.46

query: Repeat for the following sequence: DYDLVLAEDEEMNRMHESMKLFDS [GNAI1]
result: 4.84

query: Repeat for the following sequence: EDSVSRLEKEIEVLERGDSAPATA [PALM]
result: 5.47

query: Repeat for the following sequence: RKRLAREMQLSEVQIKTWFQNRRM [VENTX]
result: 2.73
